- TEST: Chemical stability of the compound in phosphate buffer at pH 8.0 assessed as first order rate constant of compound disappearance at 250 umol/mL by HPLC analysis
- Assay type: physicochemical
MEASURE NAME: Activity (×10⁻² /hr)

COMPOUND STRUCTURE STRING | Activity (×10⁻² /hr)
CCSS/C(CCOC(=O)[C@@H](C)c1ccc2cc(OC)ccc2c1)=C(/C)N(C=O)CC(=O)OC[C@H]1O[C@H](O)[C@H](O)[C@@H](O)[C@@H]1O | 2.77
COc1ccc2cc([C@H](C)C(=O)OCC/C(SSCc3ccccc3)=C(\C)N(C=O)CC(=O)OC[C@H]3O[C@H](O)[C@H](O)[C@@H](O)[C@@H]3O)ccc2c1 | 3.56
COc1ccc2cc([C@H](C)C(=O)OCC/C(SSC(C)C)=C(\C)N(C=O)CC(=O)OC[C@H]3O[C@H](O)[C@H](O)[C@@H](O)[C@@H]3O)ccc2c1 | 2.42
COc1ccc2cc([C@H](C)C(=O)OCC/C(SSCc3ccccc3)=C(\C)N(C)C=O)ccc2c1 | 2.05
COc1ccc2cc([C@H](C)C(=O)OC[C@H]3O[C@H](O)[C@H](O)[C@@H](O)[C@@H]3O)ccc2c1 | 2.91
